- assayed_target: Phosphatidylinositol 4,5-bisphosphate 3-kinase catalytic subunit delta isoform (Homo sapiens, UniProt O00329)
- Sequence (O00329 whole entry, canonical isoform): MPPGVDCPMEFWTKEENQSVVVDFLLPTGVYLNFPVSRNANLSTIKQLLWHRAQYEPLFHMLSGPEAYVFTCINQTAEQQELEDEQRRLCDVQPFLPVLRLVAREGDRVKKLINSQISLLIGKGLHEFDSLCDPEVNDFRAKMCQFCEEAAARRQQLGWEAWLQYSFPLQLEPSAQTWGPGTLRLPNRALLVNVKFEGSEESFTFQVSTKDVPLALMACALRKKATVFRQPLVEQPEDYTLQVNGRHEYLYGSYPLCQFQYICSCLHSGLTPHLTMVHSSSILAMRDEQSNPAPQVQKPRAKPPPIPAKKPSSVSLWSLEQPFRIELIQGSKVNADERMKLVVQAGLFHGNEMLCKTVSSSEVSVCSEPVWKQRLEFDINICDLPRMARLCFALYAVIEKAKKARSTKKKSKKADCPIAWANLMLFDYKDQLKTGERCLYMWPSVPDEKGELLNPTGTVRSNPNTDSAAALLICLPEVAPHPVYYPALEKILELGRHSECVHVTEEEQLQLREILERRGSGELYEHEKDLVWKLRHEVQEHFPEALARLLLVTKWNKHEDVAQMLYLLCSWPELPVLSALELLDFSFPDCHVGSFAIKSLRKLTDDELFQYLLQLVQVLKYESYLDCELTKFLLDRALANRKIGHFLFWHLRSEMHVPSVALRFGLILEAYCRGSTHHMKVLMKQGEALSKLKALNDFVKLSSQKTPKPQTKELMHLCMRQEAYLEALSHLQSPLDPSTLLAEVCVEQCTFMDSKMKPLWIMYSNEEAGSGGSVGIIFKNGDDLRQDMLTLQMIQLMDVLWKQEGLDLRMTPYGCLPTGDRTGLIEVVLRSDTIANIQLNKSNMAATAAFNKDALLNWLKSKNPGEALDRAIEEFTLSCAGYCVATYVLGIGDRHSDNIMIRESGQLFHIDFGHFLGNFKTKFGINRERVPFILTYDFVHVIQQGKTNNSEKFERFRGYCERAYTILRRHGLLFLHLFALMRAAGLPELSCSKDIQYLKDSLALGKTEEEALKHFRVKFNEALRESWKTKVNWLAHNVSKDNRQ
- assay_details: Inhibition of PI3Kdelta (unknown origin) using PIP2 as substrate preincubated for 15 mins followed by substrate addition and measured after 1 hr by HTRF assay
quantity: IC50 (µM)

For orientation, consider the following solved cases.
Q) State the recorded IC50 for this entry: `CCNC(=O)Nc1ccc(-c2nccc(N3CCOCC3)n2)cc1`
A) 10

Q) State the recorded IC50 for this entry: `CCNC(=O)Nc1ccc(-c2nc(N3CCOC[C@@H]3C)cc(C(C)(C)S(C)(=O)=O)n2)cc1`
A) 7.94

Q) State the recorded IC50 for this entry: `CC(C)(c1cc([C@]23CCOC[C@H]2C3)nc(-c2cccc(O)c2)n1)S(C)(=O)=O`
A) 10

A. CNCC(=O)Nc1ccc(-c2nc(C(C)(C)S(C)(=O)=O)cc([C@]34CCOC[C@H]3C4)n2)cc1
B. Oc1cccc(-c2nccc(C3CCOCC3)n2)c1
Q) Between these two entries, A and B , state which has the higher IC50. Please reply using the label of the selected record.
A) A

The origin of these recorded values is ChEMBL document CHEMBL4311944.
